B1: GAGE1 (parent)
chain: QPPEMIGPMRPEQFSDEVEPATPE

# Variants of: B1
# protocol-description: protein stability index of a GFP-peptide fusion (GPS, HEK-293T) (PSI 1-6); higher = more stable;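 note: lentivirally expressed fusions sorted by FACS into six bins by GFP to DsRed ratio, PSI derived from sequencing read proportions per bin multiplied by bin number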
# applied-conditions: c terminus: a fixed tail appended
Item-by-item account of protein stability index

Field: example entries. Status: answers known.
1) D16E | 3.25
2) M5K | 5.27
3) F14R | 5.72
4) G7E | 5.69
5) G7A | 5.38
6) E12C | 5.27
7) E4N | 5.48
8) R10C | 5.51
9) S15N | 5.32
10) F14C | 5.29

According to the records, this variant P11A displays protein stability index of 5.35

Data point: E17Y ; protein stability index = 4.05

Kindly note the recorded protein stability index for D16N , which is 5.38

The variant P11D showed protein stability index equal to 5.69

# credit: the supplement of paper PMC10567573
